Tested on: SK-MES-1
Assay: relative viability (nuclei count vs DMSO), 5 days (fraction); higher = more cells survive
Conditions: first compound 1.265 µM
Measured property: relative viability
Give only the figure.

>>> numeric_result("Cc1sc2c(c1C)C(c1ccc(Cl)cc1)=N[C@@H](CC(=O)OC(C)(C)C)c1nnc(C)n1-2 [JQ1] + Nc1ncn([C@H]2C[C@H](O)[C@@H](CO)O2)c(=O)n1 [Decitabine] (partner 2 µM)")
0.194
>>> numeric_result("Cc1sc2c(c1C)C(c1ccc(Cl)cc1)=N[C@@H](CC(=O)OC(C)(C)C)c1nnc(C)n1-2 [JQ1] + N=C(N)NC(=N)NCCc1ccccc1 [Phenformin] (partner 250 µM)")
0.307
>>> numeric_result("Cc1sc2c(c1C)C(c1ccc(Cl)cc1)=N[C@@H](CC(=O)OC(C)(C)C)c1nnc(C)n1-2 [JQ1] + C[C@]1(O)C[C@@H](c2nc(-c3ccc4ccc(-c5ccccc5)nc4c3)c3c(N)nccn32)C1 [Linsitinib] (partner 1 µM)")
0.332
>>> numeric_result("Cc1sc2c(c1C)C(c1ccc(Cl)cc1)=N[C@@H](CC(=O)OC(C)(C)C)c1nnc(C)n1-2 [JQ1] + Cc1nc(Nc2ncc(C(=O)Nc3c(C)cccc3Cl)s2)cc(N2CCN(CCO)CC2)n1 [Dasatinib] (partner 0.075 µM)")
0.168
>>> numeric_result("Cc1sc2c(c1C)C(c1ccc(Cl)cc1)=N[C@@H](CC(=O)OC(C)(C)C)c1nnc(C)n1-2 [JQ1] + CCNC(=O)c1noc(-c2cc(C(C)C)c(O)cc2O)c1-c1ccc(CN2CCOCC2)cc1 [Luminespib] (partner 0.01 µM)")
0.163
>>> numeric_result("Cc1sc2c(c1C)C(c1ccc(Cl)cc1)=N[C@@H](CC(=O)OC(C)(C)C)c1nnc(C)n1-2 [JQ1] + O=C(c1cc(Cc2n[nH]c(=O)c3ccccc23)ccc1F)N1CCN(C(=O)C2CC2)CC1 [Olaparib] (partner 8 µM)")
0.208

Turning to the following compound.
Record for Cc1sc2c(c1C)C(c1ccc(Cl)cc1)=N[C@@H](CC(=O)OC(C)(C)C)c1nnc(C)n1-2 [JQ1] + CC(=O)Nc1cccc(-n2c(=O)n(C3CC3)c(=O)c3c(Nc4ccc(I)cc4F)n(C)c(=O)c(C)c32)c1 [Trametinib] (partner 0.02 µM) under target or system SK-MES-1: relative viability reported as 0.24

Value source: the supplement of paper PMC10307832
